# target-entity: human melanocortin-4 receptor (human, UniProt P32245 1-332)
# Sequence (P32245 whole entry): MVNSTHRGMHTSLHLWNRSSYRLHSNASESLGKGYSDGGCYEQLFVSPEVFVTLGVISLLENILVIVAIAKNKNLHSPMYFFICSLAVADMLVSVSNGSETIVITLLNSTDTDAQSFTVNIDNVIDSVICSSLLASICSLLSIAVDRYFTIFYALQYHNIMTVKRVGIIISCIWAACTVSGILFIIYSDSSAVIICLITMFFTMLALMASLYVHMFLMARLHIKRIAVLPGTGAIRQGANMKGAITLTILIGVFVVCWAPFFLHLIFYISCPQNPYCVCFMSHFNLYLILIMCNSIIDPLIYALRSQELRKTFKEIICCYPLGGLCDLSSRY
# assay-notes: cell-based or functional assay
Positions of bridges follow the written chain, without caps; N, C: chain ends. Non-standard residues stand in square brackets, D forms with d. dPhe(4-CN) = N#Cc1ccc(C[C@@H](N)C(=O)O)cc1; dPhe(2-Cl) = N[C@H](Cc1ccccc1Cl)C(=O)O; dPhe(2-Me) = Cc1ccccc1C[C@@H](N)C(=O)O; dPhe(4-F) = N[C@H](Cc1ccc(F)cc1)C(=O)O; Orn = NCCC[C@H](N)C(=O)O
reported-endpoint: Intrinsic Activity, cAMP, 0.1 ng/mL Doxycycline (%)

Some entries whose results are on file:
Ac-REQ[dPhe(2-Cl)]RW[Orn]-NH2 (lactam 2-7, also called No. 34) [Ac-Arg-cyclo(Glu-Gln-D-Phe(2-Cl)-Arg-Trp-Orn)-NH2]: 79
Ac-REQ[dPhe(4-CN)]RW[Orn]-NH2 (lactam 2-7; also: acetate salt, acetate salt form; also called Ex 46) [Ac-Arg-cyclo(Glu-Gln-D-Phe(4-CN)-Arg-Trp-Orn)-NH2]: 40

(a) XDQXRWK (N-terminal Ac; D-Arg 1; D-Phe(4-CN) 4; lactam Asp 2-Lys 7; C-terminal NH2, also called No. 81) [Ac-D-Arg-cyclo(Asp-Gln-D-Phe(4-CN)-Arg-Trp-Lys)-NH2]
(b) Ac-REN[dPhe(4-CN)]RW[Orn]-OH (lactam 2-7, also called No. 85) [Ac-Arg-cyclo(Glu-Asn-D-Phe(4-CN)-Arg-Trp-Orn)-OH]
(c) Ac-REN[dPhe(2-Me)]RW[Orn]-NH2 (lactam 2-7, also called No. 73) [Ac-Arg-cyclo(Glu-Asn-D-Phe(2-Me)-Arg-Trp-Orn)-NH2]
(d) Ac-REE[dPhe(4-CN)]RW[Orn]-OH (lactam 2-7) [Ac-Arg-cyclo(Glu-Glu-D-Phe(4-CN)-Arg-Trp-Orn)-OH]
Query: Reorder the items by Intrinsic Activity, cAMP, 0.1 ng/mL Doxycycline, least to greatest. State the ranking by listing the labels in the requested order.
Reply: d, a, b, c

(P) Ac-REP[dPhe(4-F)]RW[Orn]-NH2 (lactam 2-7; also: acetate salt, acetate salt form; also called Ex 67) [Ac-Arg-cyclo(Glu-Pro-D-Phe(4-F)-Arg-Trp-Orn)-NH2]
(Q) Ac-REN[dPhe(4-F)]RW[Orn]-NH2 (lactam 2-7, also called No. 69) [Ac-Arg-cyclo(Glu-Asn-D-Phe(4-F)-Arg-Trp-Orn)-NH2]
Query: Of P and Q , which shows the smaller Intrinsic Activity, cAMP, 0.1 ng/mL Doxycycline value? Answer = label.
Reply: P

(I) XDQXRWK (N-terminal Ac; D-Arg 1; D-Phe(2-Cl) 4; lactam Asp 2-Lys 7; C-terminal NH2, also called No. 79) [Ac-D-Arg-cyclo(Asp-Gln-D-Phe(2-Cl)-Arg-Trp-Lys)-NH2]
(II) Ac-R[Orn]Q[dPhe(4-CN)]RWE-NH2 (lactam 2-7, also called No. 94) [Ac-Arg-cyclo(Orn-Gln-D-Phe(4-CN)-Arg-Trp-Glu)-NH2]
Query: Between I and II , whose measured Intrinsic Activity, cAMP, 0.1 ng/mL Doxycycline reads higher? Answer = label.
Reply: I
(I: 48%, II: 32%)
